Would you mind telling me the reported normalized growth of each entry?
Protocol Description: chemical genetic growth profiling, strain panel (AID 1159580);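 also: tested at 20 µM; growth read once vehicle control cultures reached saturation at 30 °C; 1 = growth at the plate median or of vehicle wells; lower values mean less growth of the strain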
Experimental Parameters: S. cerevisiae deletion strains, growth OD, locus YBR021W, strain FUR4, active compounds read low
Screen size: about 5,500 compounds; about 2,000 (36%) were called active. Roughly 18% stayed inconclusive and do not appear here. Some of the results follow.
Please give only the number in your answer, with no unit.

query: What measured normalized growth goes with C/C1=C\CCC(=O)C2CC(C)(C)C2CC1 (stereo unspecified) ?
result: 0.997

query: What measured normalized growth goes with CCCC(=O)O[C@]1(C(=O)CO)CCC2[C@@H]3CCC4=CC(=O)CC[C@]4(C)C3[C@@H](O)C[C@@]21C (stereo partly specified) ?
result: 1.02

query: What measured normalized growth goes with CC(=O)OCC[C@H](C)CCC=C(C)C ?
result: 0.991

query: What measured normalized growth goes with CC(C)NNC(=O)c1ccncc1 ?
result: 1

query: What measured normalized growth goes with C=C1CCC(OC(C)=O)/C(C)=C/C[C@@H]2[C@@H]1CC2(C)C (stereo partly specified) ?
result: 1.02

query: What measured normalized growth goes with NS(=O)(=O)c1cc2c(cc1Cl)NC(C(Cl)Cl)NS2(=O)=O (stereo unspecified) ?
result: 1.01

query: What measured normalized growth goes with C#CCCCCCCCCCCCC(O)CC(O)COC(C)=O (stereo unspecified) ?
result: 0.925

query: What measured normalized growth goes with C=C1CCC2C(CC2(C)C)C(=O)CCC1O (stereo unspecified) ?
result: 1.02

query: What measured normalized growth goes with C=CCCCCCCCCCCCC(O)CC(O)COC(C)=O (stereo unspecified) (tested in a mixture with another compound) ?
result: 0.78

query: What measured normalized growth goes with C=CCSCC1Nc2cc(Cl)c(S(N)(=O)=O)cc2S(=O)(=O)N1 (stereo unspecified) ?
result: 0.991

query: What measured normalized growth goes with C=C1CCC(C2CC(=O)OC2=O)C(=O)CCC2C1CC2(C)C (stereo unspecified) ?
result: 1

###

Protocol Description: chemical genetic growth profiling, strain panel (AID 1159580)
Experimental Parameters: S. cerevisiae deletion strains, growth OD, locus YPL055C, strain LGE1, active compounds read low
In all, about 5,500 compounds went through this assay and about 2,000 (36%) were called active. Roughly 18% stayed inconclusive and do not appear here. The list shows a part of the results.
Would you mind telling me the reported normalized growth of each entry?
Please give only the number in your answer, with no unit.

query: What measured normalized growth goes with NC(N)=NS(=O)(=O)c1ccc(N)cc1 ?
result: 1.07

query: What measured normalized growth goes with NS(=O)(=O)c1cc2c(cc1Cl)NC(C(Cl)Cl)NS2(=O)=O (configuration not stated) ?
result: 1.02

query: What measured normalized growth goes with COc1c(OC)c2occc2c2oc(=O)ccc12 ?
result: 0.87

query: What measured normalized growth goes with COc1ccc2c(c1O)OCC1c3cc4c(cc3OC21)OCO4 (configuration not stated) ?
result: 0.883

query: What measured normalized growth goes with C=CC(N)CCC(=O)O (configuration not stated) ?
result: 1

query: What measured normalized growth goes with COc1ccc(C(C)=O)cc1CSC(=NS(=O)(=O)c1ccccc1)Nc1cccc(F)c1 ?
result: 1.02

query: What measured normalized growth goes with COc1c2ccoc2c(OC)c2oc(=O)ccc12 ?
result: 0.868

###

Protocol Description: chemical genetic growth profiling, strain panel (AID 1159580);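 also: tested at 20 µM; growth read once vehicle control cultures reached saturation at 30 °C; 1 = growth at the plate median or of vehicle wells; lower values mean less growth of the strain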
Experimental Parameters: S. cerevisiae deletion strains, growth OD, locus YJL115W, strain asf1, active compounds read low
The whole screen tested about 5,500 compounds, of which about 2,000 (36%) were called active. About 18% were inconclusive and are not listed. The list shows a part of the results.
Experimental Endpoint: normalized growth
Please give only the number in your answer, with no unit.

query: What measured normalized growth goes with CC(C)[C@@H]1CC[C@@H](C)C[C@H]1O ?
result: 0.981

query: What measured normalized growth goes with OC(Cn1cncn1)(Cn1cncn1)c1ccc(F)cc1F ?
result: 0.996

query: What measured normalized growth goes with O=c1[nH]oc2c1CCNC2 ?
result: 1.01

query: What measured normalized growth goes with CCCCCCCCCCCCCCCC(=O)OC1C(SC)OC(C(NC(=O)C2CC(CCC)CN2C)C(C)Cl)C(O)C1O (stereo unspecified) ?
result: 0.974

query: What measured normalized growth goes with CCC(C)C(=O)O[C@H]1C[C@H](O)C=C2C=C[C@H](C)[C@H](CC[C@@H](O)C[C@@H](O)CC(=O)O)C21 (stereo partly specified) ?
result: 1.01

query: What measured normalized growth goes with CC(=O)N[C@@H](CS)C(=O)O ?
result: 0.991

###

Protocol Description: chemical genetic growth profiling, strain panel (AID 1159580);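 also: tested at 20 µM; growth read once vehicle control cultures reached saturation at 30 °C; 1 = growth at the plate median or of vehicle wells; lower values mean less growth of the strain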
Experimental Parameters: S. cerevisiae deletion strains, growth OD, locus YGL167C, strain pmr1
In all, about 5,500 compounds went through this assay and about 2,000 (36%) were called active. Not shown: some 18% with an inconclusive outcome. Rule as the data show it: active = normalized growth mostly below about 0.91 (no sharp cut-off); inconclusive = no clear call, values can overlap the other calls; inactive = mostly above about 0.92. Some of the results follow.
Please answer using one outcome listed in t = active, f = inactive

query: Outcome logged for CCCCCCCCCCCCCCCC(=O)OC1C(SC)OC(C(NC(=O)C2CC(CCC)CN2C)C(C)Cl)C(O)C1O (stereo unspecified) in this assay:
result: f

query: Outcome logged for CO/N=C(\C(=O)N[C@@H]1C(=O)N2C(C(=O)O)=C(CSc3nc(=O)c(O)nn3C)CS[C@H]12)c1csc(N)n1 in this assay:
result: f

query: Outcome logged for CCOC(=O)c1ccc(O)cc1 in this assay:
result: f

query: Outcome logged for Cc1cccc(Nc2ccccc2C(=O)O)c1C in this assay:
result: t

query: Outcome logged for COC(=O)[C@@H]1OC(=O)[C@H]2O[C@@]23[C@@]1(C)CCC1[C@@]2(C)CCC(=O)C(C)(C)C2C[C@@H](OC(C)=O)[C@]13C (stereo partly specified) in this assay:
result: f

query: Outcome logged for O=C(C1CCCCC1)N1CC(=O)N2CCc3ccccc3C2C1 (stereo unspecified) in this assay:
result: f

query: Outcome logged for C=CCCCCCCCCCCCC(O)CC(O)COC(C)=O (stereo unspecified) (tested in a mixture with another compound) in this assay:
result: f

query: Outcome logged for CC1=CC2C(CC1=O)C(C)=CCC2C(C)C (stereo unspecified) in this assay:
result: f

query: Outcome logged for CC(=O)Oc1c(C)cccc1C(=O)O in this assay:
result: f

query: Outcome logged for Cc1c(Cl)cccc1Nc1ccccc1C(=O)O in this assay:
result: t

query: Outcome logged for C#CCCCCCCCCCCCC(O)CC(O)CO (stereo unspecified) in this assay:
result: f

###

Protocol Description: chemical genetic growth profiling, strain panel (AID 1159580);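 also: tested at 20 µM; growth read once vehicle control cultures reached saturation at 30 °C; 1 = growth at the plate median or of vehicle wells; lower values mean less growth of the strain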
Experimental Parameters: S. cerevisiae deletion strains, growth OD, locus YLR342W, strain FKS1, active compounds read low
Out of some 5,500 compounds screened, about 2,000 (36%) were called active. About 18% were inconclusive and are not listed. The list shows a part of the results.
Would you mind telling me the reported normalized growth of each entry?
Please give only the number in your answer, with no unit.

query: What measured normalized growth goes with CC[C@H](C)C(=O)O[C@H]1CCC=C2C=C[C@H](C)C(CCC3C[C@@H](O)CC(=O)O3)[C@H]21 (stereo not given in full) ?
result: 1.01

query: What measured normalized growth goes with CC1(C)O[C@H]2[C@H](O)C[C@](O)(C(N)=O)C[C@H]2O1 ?
result: 1.01

query: What measured normalized growth goes with NC(=O)c1cccc(N)c1 ?
result: 0.942

query: What measured normalized growth goes with NC(N)=NS(=O)(=O)c1ccc(N)cc1 ?
result: 0.977

query: What measured normalized growth goes with Nc1nc2ncc(=O)[nH]c2c(=O)[nH]1 ?
result: 0.987

query: What measured normalized growth goes with CCCCNc1ccc(C(=O)OCCN(C)C)cc1 ?
result: 1.02

query: What measured normalized growth goes with CCCCOC(=O)c1ccc(N)cc1 ?
result: 0.605

query: What measured normalized growth goes with CCCOc1ccc(C(=O)OCCN(CC)CC)cc1N ?
result: 0.999

query: What measured normalized growth goes with Cc1cccc(Nc2ccccc2C(=O)O)c1C ?
result: 0.897

query: What measured normalized growth goes with O=S1OCC2C(CO1)C1(Cl)C(Cl)=C(Cl)C2(Cl)C1(Cl)Cl (stereo not given) ?
result: 0.991

query: What measured normalized growth goes with CC(=O)Oc1c(C)cccc1C(=O)O ?
result: 1

query: What measured normalized growth goes with CCCCN1CCCCC1C(=O)Nc1c(C)cccc1C (stereo not given) ?
result: 0.973

query: What measured normalized growth goes with CCN(CC)CCOC(=O)c1ccc(N)cc1 ?
result: 1.02

query: What measured normalized growth goes with O=C1[C@H](CCC(O)c2ccc(F)cc2)[C@@H](c2ccc(O)cc2)N1c1ccc(F)cc1 (stereo not given in full) ?
result: 0.973

query: What measured normalized growth goes with Cc1c(Cl)cccc1Nc1ccccc1C(=O)O ?
result: 0.795

query: What measured normalized growth goes with CCCCN(CCCC)CCCOC(=O)c1ccc(N)cc1 ?
result: 0.996

query: What measured normalized growth goes with C=C1C(=O)O[C@@H]2C[C@@]3(C)CCC[C@H](C)C3=C[C@H]12 ?
result: 0.885

query: What measured normalized growth goes with Oc1ccc(Cl)cc1 ?
result: 1.01

query: What measured normalized growth goes with CCN(CC)C(=O)c1cccc(C)c1 ?
result: 1.01

query: What measured normalized growth goes with Cc1ccc(Cl)c(Nc2ccccc2C(=O)O)c1Cl ?
result: 0.857

query: What measured normalized growth goes with CC1OC1P(=O)(O)O (stereo not given) ?
result: 0.983

query: What measured normalized growth goes with CC(C)(C)CC(C)(C)c1ccc(O)c(Cc2ccc(Cl)cc2Cl)c1 ?
result: 1.01

query: What measured normalized growth goes with CO[C@@]1(NC(=O)CSCC#N)C(=O)N2C(C(=O)O)=C(CSc3nnnn3C)CSC21 (stereo not given in full) ?
result: 0.967

query: What measured normalized growth goes with Oc1ccc(Cl)cc1Cc1cc(Cl)ccc1O ?
result: 0.0648

query: What measured normalized growth goes with CCC(C)C(=O)O[C@H]1C[C@H](O)C=C2C=C[C@H](C)[C@H](CC[C@@H](O)C[C@@H](O)CC(=O)O)C21 (stereo not given in full) ?
result: 1.02
